The measurements presented in this section are drawn from ChEMBL document CHEMBL1926598.

Test: Induction of nitric oxide release at 0.1 mM after 3 hrs in phosphate buffer at pH 7.4 by Griess assay
Assay type: physicochemical
Conditions: pH 7.4, 3 h, 100 µM
valueKind: Activity (mol/mol)

Solved entries (count: 8):
molecule	assayResult
CC(O[N+](=O)[O-])C(=O)Nc1ccc(C(=O)/C=C/c2ccco2)cc1 (stereo unspecified)	0.38
COc1ccc(/C=C/C(=O)c2ccc(NC(=O)COCc3c(-c4ccccc4)no[n+]3[O-])cc2)cc1	0.47
COc1ccc(/C=C/C(=O)c2ccc(NC(=O)C(C)O[N+](=O)[O-])cc2)cc1 (stereo unspecified)	0.37
O=C(COCc1c(-c2ccccc2)no[n+]1[O-])Nc1ccc(C(=O)/C=C/c2ccco2)cc1	0.4
COc1ccc(/C=C/C(=O)c2ccc(NC(=O)CO[N+](=O)[O-])cc2)cc1	0.48
CC(O[N+](=O)[O-])C(=O)Nc1ccc(C(=O)/C=C/c2ccc3c(c2)OCO3)cc1 (stereo unspecified)	0.4
COc1ccc(/C=C/C(=O)c2ccc(NC(=O)COc3ccc(/C(C)=N\O)cc3)cc2)cc1	0.14
C/C(=N/O)c1ccc(OCC(=O)Nc2ccc(C(=O)/C=C/c3ccc(Cl)cc3)cc2)cc1	0.22

1. C/C(=N/O)c1ccc(OCC(=O)Nc2ccc(C(=O)/C=C/c3ccc4c(c3)OCO4)cc2)cc1
2. O=C(CO[N+](=O)[O-])Nc1ccc(C(=O)/C=C/c2ccc(Cl)cc2)cc1
3. C/C(=N/O)c1ccc(OCC(=O)Nc2ccc(C(=O)/C=C/c3ccco3)cc2)cc1
4. O=C(COCc1c(-c2ccccc2)no[n+]1[O-])Nc1ccc(C(=O)/C=C/c2ccc(Cl)cc2)cc1
5. O=C(CO[N+](=O)[O-])Nc1ccc(C(=O)/C=C/c2ccco2)cc1
Place the items in sequence of falling Activity. Arrange the labels as the request states and list them.
4, 2, 5, 1, 3
(4: 1.22 mol/mol, 2: 0.54 mol/mol, 5: 0.37 mol/mol, 1: 0.25 mol/mol, 3: 0.12 mol/mol)

I. O=C(CO[N+](=O)[O-])Nc1ccc(C(=O)/C=C/c2ccc3c(c2)OCO3)cc1
II. O=C(COCc1c(-c2ccccc2)no[n+]1[O-])Nc1ccc(C(=O)/C=C/c2ccc3c(c2)OCO3)cc1
Lowest Activity? choose I or II Pick one; state its label.
I

###

System: Rattus norvegicus
Test: Antiinflammatory activity in albino rat assessed as inhibition of carrageenan-induced paw edema at 100 mg/kg, po administered 30 mins prior to challenge measured after 3 hrs relative to untreated control
Format: functional
valueKind: inhibition in vivo at 100 mg/kg (%)
Provide the reading as a plain figure in %.

Solved entries:
compound	testedTarget	valueKind	assayResult
C/C(=N/O)c1ccc(OCC(=O)Nc2ccc(C(=O)/C=C/c3ccc4c(c3)OCO4)cc2)cc1	Rattus norvegicus	inhibition in vivo at 100 mg/kg	59
CC(O[N+](=O)[O-])C(=O)Nc1ccc(C(=O)/C=C/c2ccco2)cc1 (stereo not drawn)	Rattus norvegicus	inhibition in vivo at 100 mg/kg	54
CC(=O)c1ccc(OCC(=O)Nc2ccc(C(=O)/C=C/c3ccc4c(c3)OCO4)cc2)cc1	Rattus norvegicus	inhibition in vivo at 100 mg/kg	57

# lookup: inhibition in vivo at 100 mg/kg of Nc1ccc(C(=O)/C=C/c2ccco2)cc1
42

And COc1ccc(/C=C/C(=O)c2ccc(NC(=O)C(C)O[N+](=O)[O-])cc2)cc1 (stereo not drawn) ?
50

Similarly, CC(=O)c1ccc(OCC(=O)Nc2ccc(C(=O)/C=C/c3ccco3)cc2)cc1 ?
45

Now consider O=C(COCc1c(-c2ccccc2)no[n+]1[O-])Nc1ccc(C(=O)/C=C/c2ccco2)cc1 .
59

Same read-out for COc1ccc(/C=C/C(=O)c2ccc(NC(=O)COc3ccc(C(C)=O)cc3)cc2)cc1 ?
42
